molecular target: IRE1a (Homo sapiens, UniProt O75460); test: IRE1a Endoribonuclease Nanoluciferase Assay (XBP1 luciferase reporter in 293T cells); conditions: 293T cells transfected with XBP1 luciferase reporter, ER stressors +/- inhibitors
Sequence (O75460 19-977): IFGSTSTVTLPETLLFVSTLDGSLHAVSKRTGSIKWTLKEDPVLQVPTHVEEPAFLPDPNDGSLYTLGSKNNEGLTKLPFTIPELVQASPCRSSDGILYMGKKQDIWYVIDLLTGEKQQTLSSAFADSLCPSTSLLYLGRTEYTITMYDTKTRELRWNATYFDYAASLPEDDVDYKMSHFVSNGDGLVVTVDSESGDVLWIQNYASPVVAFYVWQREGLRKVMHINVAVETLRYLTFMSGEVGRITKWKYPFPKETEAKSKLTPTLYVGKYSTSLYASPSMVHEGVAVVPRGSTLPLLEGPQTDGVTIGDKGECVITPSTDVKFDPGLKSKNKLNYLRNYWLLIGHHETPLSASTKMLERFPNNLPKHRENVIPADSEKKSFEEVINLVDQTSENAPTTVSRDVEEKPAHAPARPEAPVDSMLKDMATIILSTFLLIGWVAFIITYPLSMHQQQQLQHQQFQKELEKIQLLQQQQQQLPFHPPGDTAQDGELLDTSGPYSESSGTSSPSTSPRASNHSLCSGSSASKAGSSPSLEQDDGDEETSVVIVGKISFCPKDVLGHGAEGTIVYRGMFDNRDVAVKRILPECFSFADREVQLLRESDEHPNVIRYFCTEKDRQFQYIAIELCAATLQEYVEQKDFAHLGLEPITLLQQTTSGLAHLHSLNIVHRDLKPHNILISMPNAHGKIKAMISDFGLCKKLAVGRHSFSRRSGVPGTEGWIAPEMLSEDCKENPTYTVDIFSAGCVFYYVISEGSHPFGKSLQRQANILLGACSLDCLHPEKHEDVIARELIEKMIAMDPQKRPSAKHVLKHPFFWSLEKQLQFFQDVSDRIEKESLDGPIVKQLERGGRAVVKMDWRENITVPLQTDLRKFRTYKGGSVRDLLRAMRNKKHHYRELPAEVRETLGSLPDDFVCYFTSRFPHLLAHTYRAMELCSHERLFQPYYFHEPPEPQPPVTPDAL
observationType: EC50

Q: Any idea what its EC50 is? The compound is CCc1cc(-c2cc(NS(=O)(=O)c3ccccc3Cl)nn2C)cc2cnc(N[C@H]3CC[C@H](N)CC3)nc12
Result: 0.05 to 0.1 µM

Q: Note, next up: CCc1cc(-c2ccc(NS(=O)(=O)c3ccccc3Cl)c(F)c2)cc2cnc(N[C@H]3CC[C@H](N)CC3)nc12.O=CO
Result: ≤ 0.005 µM

Q: Note, next up: CCc1cc(-c2ccc(NS(=O)(=O)c3ccccc3Cl)nc2C)cc2cnc(N[C@H]3CC[C@H](N)CC3)nc12.O=CO
Result: ≤ 0.005 µM

Q: Note, next up: CCc1cc(-c2ccc(NS(=O)(=O)c3ccccc3Cl)c(F)c2)cc2cnc(N[C@H]3CC[C@H](N4CCCC4)CC3)nc12
Result: ≤ 0.005 µM

Q: Note, next up: CCc1cc(-c2ccc(NS(=O)(=O)c3ccccc3Cl)cc2F)cc2cnc(N[C@H]3CC[C@H](N)CC3)nc12.O=CO
Result: ≤ 0.005 µM

Q: Note, next up: N[C@H]1CC[C@H](Nc2ncc3cc(-c4cnc(NS(=O)(=O)c5ccccc5Cl)c(F)c4)ccc3n2)CC1
Result: 0.005 to 0.05 µM

Q: Note, next up: N[C@@H]1CC[C@@H](Nc2ncc3cc(-c4ccc(NS(=O)(=O)c5ccccc5Cl)c(F)c4)ccc3n2)C1
Result: 0.005 to 0.05 µM

Q: Note, next up: CCc1cc(-c2cc(F)c(NS(=O)(=O)c3ccccc3Cl)cc2OC)cc2cnc(N[C@H]3CC[C@H](N(C)C)CC3)nc12
Result: ≤ 0.005 µM

Q: Note, next up: CCc1cc(-c2ccc(NS(=O)(=O)c3ccccc3Cl)c(F)c2)cc2cnc(N[C@H]3CC4C[C@@H](N)CC4C3)nc12 (some centres unmarked)
Result: 0.005 to 0.05 µM

Q: Note, next up: CCc1cc(-c2cnc(NS(=O)(=O)c3ccccc3Cl)cn2)cc2cnc(N[C@H]3CC[C@H](N)CC3)nc12.O=CO
Result: ≤ 0.005 µM

Q: Note, next up: CCc1cc(-c2ncc(NS(=O)(=O)c3ccccc3Cl)cn2)cc2cnc(N[C@H]3CC[C@H](N)CC3)nc12.O=CO
Result: ≤ 0.005 µM

Q: Note, next up: CCc1cc(-c2ccc(NS(=O)(=O)c3ccccc3Cl)c(F)c2C)cc2cnc(N[C@H]3CC[C@H](N)CC3)nc12.O=CO
Result: ≤ 0.005 µM

Q: Note, next up: CCc1cc(-c2ccc(NS(=O)(=O)c3ccccc3Cl)c(F)c2)cc2cnc(NC34CCC(N)(CC3)CC4)nc12
Result: ≤ 0.005 µM

Q: Note, next up: CCc1cc(-c2cc(CC)c3nc(N[C@H]4CC[C@H](N)CC4)ncc3c2)nnc1NS(=O)(=O)c1ccccc1Cl
Result: 0.05 to 0.1 µM

Q: Note, next up: N[C@H]1CC[C@H](Nc2ncc3cc(-c4nnc(NS(=O)(=O)c5ccccc5Cl)s4)ccc3n2)CC1
Result: > 0.1 µM

Q: Note, next up: CCc1cc(-c2nnc(NS(=O)(=O)c3ccccc3Cl)cc2C)cc2cnc(N[C@H]3CC[C@H](N)CC3)nc12.O=CO
Result: 0.005 to 0.05 µM

Q: Note, next up: CCc1cc(-c2cc(F)c(NS(=O)(=O)c3ccccc3Cl)cc2OC)cc2cnc(N[C@H]3CC[C@H](NC)CC3)nc12
Result: ≤ 0.005 µM

Q: Note, next up: N[C@H]1CC[C@@H](Nc2ncc3cc(-c4ccc(NS(=O)(=O)c5ccccc5Cl)c(F)c4)ccc3n2)C1
Result: > 0.1 µM

Q: Note, next up: COCc1cc(-c2ccc(NS(=O)(=O)c3ccccc3Cl)nc2OC)cc2cnc(N[C@H]3CC[C@H](N)CC3)nc12
Result: ≤ 0.005 µM

Q: Note, next up: N[C@H]1CC[C@H](Nc2ncc3cc(-c4c(F)cc(NS(=O)(=O)c5ccccc5Cl)cc4F)ccc3n2)CC1
Result: 0.005 to 0.05 µM

Q: Note, next up: N[C@H]1CC[C@H](Nc2ncc3cc(-c4ccc(NS(=O)(=O)c5ccccc5Cl)cc4F)ccc3n2)CC1
Result: 0.005 to 0.05 µM

Q: Note, next up: CCc1cc(-c2ncc(NS(=O)(=O)c3ccccc3Cl)nc2OC)cc2cnc(N[C@H]3CC[C@H](N)CC3)nc12
Result: ≤ 0.005 µM

Q: Note, next up: CCc1cc(-c2ccc(NS(=O)(=O)c3ccccc3)nc2C)cc2cnc(N[C@H]3CC[C@H](N)CC3)nc12
Result: 0.05 to 0.1 µM

Q: Note, next up: CCc1cc(-c2ncc(NS(=O)(=O)c3ccccc3Cl)cc2C)cc2cnc(N[C@H]3CC[C@H](N)CC3)nc12.O=CO
Result: 0.05 to 0.1 µM

Q: Note, next up: COc1nc(NS(=O)(=O)c2ccccc2Cl)ccc1-c1cc(C)c2nc(N[C@H]3CC[C@@H](N)CC3)ncc2c1
Result: 0.05 to 0.1 µM

Q: Note, next up: CCc1cc(-c2ccc(NS(=O)(=O)c3ccccc3Cl)c(F)c2)cc2cnc(N[C@@H]3CC[C@H](N)C3)nc12
Result: 0.005 to 0.05 µM
